tested on: sodium channels; settings: 25 nM [^3 H]batrachotoxin, rat cortex vesicular preparation, 60 min, 25° C., pH 7.4; read-out: IC50, Inhibition of [^3 H]Batrachotoxin Binding
value-kind: IC50 (µM)
Note: unit µM is implicit; provide only the numeric part.

For record CCCN(c1ccncc1F)n1cc(C)c2cc(O)ccc21 the listed IC50 is 19
